Where these numbers come from: the supplement of paper PMC10065799

Recorded phosphorylation enrichment values for a group of sequences are listed next.
- tested on: Fes (UniProt P07332)
- Sequence (P07332 whole entry, looked up): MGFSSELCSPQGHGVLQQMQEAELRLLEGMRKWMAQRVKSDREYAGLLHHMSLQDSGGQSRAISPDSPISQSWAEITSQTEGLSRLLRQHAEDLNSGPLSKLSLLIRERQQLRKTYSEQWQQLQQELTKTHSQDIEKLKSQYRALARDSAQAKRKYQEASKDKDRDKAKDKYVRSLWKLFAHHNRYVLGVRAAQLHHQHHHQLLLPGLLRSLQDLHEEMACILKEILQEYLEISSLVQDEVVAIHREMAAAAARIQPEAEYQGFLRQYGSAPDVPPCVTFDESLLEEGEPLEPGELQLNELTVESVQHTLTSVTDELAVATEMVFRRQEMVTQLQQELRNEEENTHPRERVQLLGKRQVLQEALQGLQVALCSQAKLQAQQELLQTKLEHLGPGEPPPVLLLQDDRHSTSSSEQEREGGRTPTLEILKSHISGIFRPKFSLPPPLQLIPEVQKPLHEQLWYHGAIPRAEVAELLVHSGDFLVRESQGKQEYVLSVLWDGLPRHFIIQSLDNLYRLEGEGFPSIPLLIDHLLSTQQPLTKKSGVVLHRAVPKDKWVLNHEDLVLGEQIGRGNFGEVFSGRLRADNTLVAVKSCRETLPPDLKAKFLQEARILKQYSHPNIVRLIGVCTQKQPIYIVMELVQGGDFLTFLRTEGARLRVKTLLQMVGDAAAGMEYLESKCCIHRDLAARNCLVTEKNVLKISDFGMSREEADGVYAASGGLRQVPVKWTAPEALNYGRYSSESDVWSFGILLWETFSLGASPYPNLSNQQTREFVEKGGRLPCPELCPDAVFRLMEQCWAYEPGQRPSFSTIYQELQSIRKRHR
- assay notes: phosphorylation enrichment, bacterial display (enrichment ratio); higher = better substrate or ligand; peptides without Tyr show the background;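 further: 11-residue human phosphosite peptides and single-mutation variants displayed on the E. coli surface, counted by deep sequencing, each peptide's frequency after selection divided by its frequency in the unselected input library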;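 further: frequency after pTyr selection over input frequency; kinase dosed for 20-30% of maximal phosphorylation in three min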
Give a plain numeric answer without units written out.

# count of solved cases: 5
VDLIVYLRTNP [TK2_Y181]	1.26
KDHRDYKYQPR [SOX9_Y172_P170R]	0.864
VHNLDYYKQTT [FGFR3_Y647_K650Q]	0.955
HNVPIYEGYGL [ACTA1_Y168_A172G]	5.48
VPVNGYQPVTA [ROR2_Y824_P828T]	0.535

Challenge: Recall and state the measured phosphorylation enrichment for PHQTIYGALMI [FGF23_Y70_S71G] .
Response given: 1.07

Challenge: Indicate its recorded phosphorylation enrichment; the sequence in question is EQKKFYNAMKN [SCN5A_Y1495_K1500N_YF]
Response given: 0.43

Challenge: Identify measured phosphorylation enrichment associated with GSSKIYFLHPD [TLR5_Y108]
Response given: 0.844

Challenge: Name the recorded phosphorylation enrichment of the sequence listed here: LRAGVYPEKDQ [DNM2_Y626]
Response given: 0.971

Challenge: Report measured phosphorylation enrichment; entry is KEAVLYPHLPP [SQSTM1_Y383_A381V]
Response given: 0.727

Challenge: For the sequence EGQKIYIDDNN [PIP4K2A_Y246] , give its measured phosphorylation enrichment value.
Response given: 1.15
